Tested on: MIWI (PIWIL1) piRISC loaded with Kctd7 piRNA (30 nt);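 further: 1 nM active piRISC with 0.1 nM target library at 33 °C single turnover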
Test: pre-steady-state target cleavage rate (min^-1); MIWI and MILI are mouse PIWI proteins and EfPiwi is from a freshwater sponge; tags in brackets are library labels; higher = faster piRNA-guided slicing of the target;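 further: 1 nM active piRISC with 0.1 nM target library at 33 °C single turnover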
Settings: guide: Kctd7 piRNA 5'p-UGUUAAUCUCUCAGAGAAGGUGACAGUGAU; auxiliary factor: 500 nM mouse GTSF1
In all, about 6,600 sequences were measured (“pre-steady-state target cleavage rate”: median about 0.07, highest 2% from about 0.72 on). The sample holds the highest values, similar sequences and a random draw of the others, so the mix is not that of the screen.
Entries annotated with measured pre-steady-state target cleavage rate
measure: pre-steady-state target cleavage rate

>  <sequenceText>
AACACUGUCACCUUCUCUGAGAGAUUAUGA

>  <val>
0.101

$$$$
>  <sequenceText>
UUUACUGUCACCUUCUCUGAGAGAUUAACA

>  <val>
0.708

$$$$
>  <sequenceText>
UACUACUGUCACCUUCUCUGAGAGAUUAACA

>  <val>
0.694

$$$$
